# Tested on: TK-10
# PROTOCOL_TEXT: NCI tumour cell line growth inhibition, 48 h
The source made the active and inactive calls. Rule as the data show it: active = GI50 up to about 1.1 µM and inactive = higher.
Outcomes you can answer with include only these: TRUE = active, FALSE = inactive

C=CCC1=CC2(OC)C(=O)C(OC)(OC)C1C1C(OC)(OC)C(=O)C(OC)=CC12CC=C (configuration not stated)    FALSE
NNC(=S)N/N=C/C(Cl)=C(\Cl)C(=O)O    FALSE
O=C(Nc1ccc2oc(=O)c(C(=O)O)cc2c1)Oc1ccccc1    FALSE
Cc1ccc(SSCCCCS(=O)O)cc1    FALSE

INPUT: Lab log entry: NCCSc1nc(-c2ccccc2)c(-c2ccccc2)o1 — outcome as called in the assay?
OUTPUT: FALSE

INPUT: Hi team, can someone confirm the assay call for CCCCN(CCCC)C1(c2cc3ccccc3s2)CCCCC1.[O-][Cl+3]([O-])([O-])O ?
OUTPUT: FALSE

INPUT: Could you check what this test reported for C[C@H](CCC(=O)NCC(=O)O)[C@H]1CC[C@H]2[C@@H]3[C@H](O)C[C@@H]4C[C@H](O)CC[C@]4(C)[C@H]3CC[C@]12C ?
OUTPUT: FALSE

INPUT: Lab log entry: CCC1(CC)C(=O)NN(C(=O)c2ccc(Cl)cc2)C1=O — outcome as called in the assay?
OUTPUT: FALSE

INPUT: Returns: the outcome recorded for COC1C=CC(C(=O)[N+]2=Cc3[nH]c4ccccc4c3CC2)O1 (configuration not stated) in this assay.
OUTPUT: FALSE

INPUT: Test call, this molecule: Cc1ccccc1NC(=O)CC1C(=O)Nc2ccccc2[S+]1[O-] (configuration not stated)
OUTPUT: FALSE

INPUT: Hi, do you know how Cc1ccc([N+](=O)[O-])cc1NC1=NCCO1 came out in this test?
OUTPUT: FALSE

INPUT: Assay outcome for CSc1ccccc1P(c1ccccc1SC)c1ccccc1SC : what was it?
OUTPUT: FALSE

INPUT: Record lookup: outcome of this test for O=C(c1ccco1)N(C(=S)OC12CC3CC(CC(C3)C1)C2)c1ccccc1 ?
OUTPUT: FALSE

INPUT: Short answer needed: outcome of this test for CCOC(=O)Nc1c(C#N)[n+]([O-])c2cc(Cl)c(Cl)cc2[n+]1[O-] ?
OUTPUT: FALSE

INPUT: Returns: the outcome recorded for Cc1cc2c(cc1C)[n+]([O-])c(C(=O)C/C(=N/OCCCc1ccccc1)C(=O)Nc1cc(Cl)ccc1Cl)c(C)[n+]2[O-] in this assay.
OUTPUT: FALSE

INPUT: Per the assay record, what outcome was assigned to Nc1nc(O)c2nc(N)n(Cc3ccccc3)c2n1 ?
OUTPUT: FALSE

INPUT: Given CCOC(=O)C1=C(C)NC(=S)NC1c1cccc(O)c1 (configuration not stated) , state the outcome it received in this test.
OUTPUT: FALSE

INPUT: Name the outcome recorded for C=C=C(C)[Si](C)(C)C in the assay.
OUTPUT: FALSE

====

# System: OVCAR-5
# PROTOCOL_TEXT: NCI tumour cell line growth inhibition, 48 h
Active and inactive are the calls of the source. Rule as the data show it: active = GI50 up to about 1.1 µM and inactive = higher.
Outcomes you can answer with include only these: Yes = active, No = inactive

Sample answers from the record:
CN(C)CCNc1nc(-c2cccs2)cc(-c2cccs2)n1    No
CCN(CC)CCN1C=CC(C)C(C(=O)O)C1C(N)=O (centres undefined)    No
Cc1cc(Br)ccc1/N=N/c1c(C)nn(-c2ccccc2)c1-c1ccccc1    No
Cc1ccc(-c2cc(-c3ccccc3)c(C#N)c(=O)[nH]2)cc1    No
COc1cc(C2OC[C@@H]3C(=O)OC[C@H]23)cc(O)c1OC (some centres undefined)    No
O=C(O)/C=N\N=c1[nH]c2ccccc2[nH]1    No
CC/C(Cl)=N\OC(=O)Nc1ccc(OC)cc1    No
COc1ccc(/C=N\NC(=O)Nc2cccc3ccccc23)cc1    No
O=C1CC2CC3OC3[C@H]3c4cc5c(cc4C(=O)N1C23)OCO5 (some centres undefined)    No
COc1cccc(C[C@H]2COC(=O)[C@]2(O)Cc2cccc(OC)c2)c1    No

INPUT: What is the recorded call for this molecule in the test? CC(C)C(Br)CC/C(CBr)=C(\Cl)CCl (centres undefined)
OUTPUT: No

====

# Tested on: UACC-257
# PROTOCOL_TEXT: NCI tumour cell line growth inhibition, 48 h
Activity calls are given as the source filed them. No stated cut-off is given here; in the data, active = GI50 up to about 1.1 µM and inactive = higher.
Response enum: active, inactive

Solved entries:
N#Cc1cnn2cc[nH]c12    inactive
O=C1C2C3C=C4c5ccccc5N(c5ccccc5)C4(C2C(=O)N1c1ccccc1)C1C(=O)N(c2ccccc2)C(=O)C31 (centres undefined)    inactive
CCCCCCCCOC(=O)c1cc([N+](=O)[O-])c(Sc2[nH]cnc3ncnc2-3)c([N+](=O)[O-])c1    inactive
CN(Cc1nc2c(N)nc(N)nc2nc1N)c1ccc(C(=O)NC(CCC(=O)O)C(=O)O)cc1 (centres undefined)    inactive
O=C(Nc1ccccc1F)c1cc2ccc(O)cc2o/c1=N\c1cccc(F)c1    inactive
CC/C(Cl)=N\OC(=O)Nc1ccc(OC)cc1    inactive
CC1=C2C(=O)OCC23C=COC3(C)O1 (centres undefined)    inactive
CC(=O)OCCOCn1c2ccccc2c2c3c(c4c5ccccc5n(COCCOC(C)=O)c4c21)C(=O)N(Cc1ccccc1)C3=O    inactive
CCCCC(/C=N/NC(=N)N)CC.Cc1cc(O)c(C(C)C)cc1S(=O)(=O)O    inactive
CCOC(=O)/C(C#N)=C(O)/C(=C/c1ccccc1Cl)NC(=O)c1ccccc1    inactive

INPUT: Recorded call for CCn1c2ccccc2c2ccc3c(c21)C(=O)c1ccccc1C3=O ?
OUTPUT: inactive

INPUT: Per the records of this test, what outcome belongs to Cc1ccc(S(=O)(=O)/N=C(\NN)Nc2ccc(Cl)cc2)cc1 ?
OUTPUT: inactive

INPUT: Any idea what this test logged for N=C(N)N/N=C/c1cc(Cl)cc(Cl)c1O ?
OUTPUT: inactive

INPUT: I'd appreciate the recorded outcome for C=CC(O)C#Cc1cnc(OC)nc1OC (centres undefined) from this test.
OUTPUT: inactive

INPUT: So what was the verdict on COc1cccc2c1C(=O)c1c(O)c3c(c(O)c1C2=O)C[C@@](O)(C(=O)CO)C[C@@H]3OC1CC(N(C)C)C(O)C(C)O1 (some centres undefined) in this test?
OUTPUT: active

INPUT: Would you mind telling me which call this test gave CN(C)CCS/C(=N\c1ccccc1)N1CCCCC1 ?
OUTPUT: inactive

INPUT: Just curious, what result did C[C@H](CCC(=O)NCC(=O)O)[C@H]1CC[C@H]2[C@@H]3[C@H](O)C[C@@H]4C[C@H](O)CC[C@]4(C)[C@H]3CC[C@]12C get here?
OUTPUT: inactive

INPUT: Which outcome was entered for the compound CCOC(=O)C1=C(C)N(NC(=O)Nc2ccccc2)C2(N)N(NC(=O)Nc3ccccc3)C(C)=C(C(=O)OCC)C12C(=O)OCC (centres undefined) in this test?
OUTPUT: inactive

INPUT: Dear all, I need the recorded test outcome for CSC(=S)N(C)NC(=O)c1cccc(C(=O)NN(C)C(=S)SC)n1 , thank you.
OUTPUT: inactive

INPUT: Answer briefly: the call reported for O=C(Nc1ccc2oc(=O)c(C(=O)O)cc2c1)Oc1ccccc1 in this assay.
OUTPUT: inactive

INPUT: Fill in: this test's call for CC(C)CCCC(C)[C@H]1CCC2[C@H]3C(CC[C@@]21C)[C@@]1(C)CCC=C[C@]12C[C@@H]2[C@@H]3O (some centres undefined) is ___
OUTPUT: inactive

INPUT: What is the recorded call for this compound in the test? CC(=O)Nc1ccc(C2=N/C(=C\c3ccc(Cl)cc3)C(=O)O2)cc1
OUTPUT: inactive

INPUT: Fill in: this test's call for C=C1CC[C@@H]2C(C)(C)C(O)CCC2(C)C1COc1ccc2ccc(=O)oc2c1 (some centres undefined) is ___
OUTPUT: inactive

INPUT: Lab log entry: O=C(O)CN1CCN2CCCCCN(CC1)CCN(CC(=O)O)CC2 — outcome as called in the assay?
OUTPUT: inactive

INPUT: Recorded test call requested for C=CCOC(=O)Cn1cnc2c(N)ncnc21
OUTPUT: inactive

INPUT: So what was the verdict on Cc1cn(C2C=CC(=O)C(C)O2)c(=O)[nH]c1=O (centres undefined) in this test?
OUTPUT: inactive

INPUT: Dear all, I need the recorded test outcome for CCCCCCCCNC(=S)N/C=C1\C(=O)Oc2ccccc2C1=O , thank you.
OUTPUT: inactive

INPUT: Test call for this compound, please: O=C1CCNC(=O)NC1
OUTPUT: inactive

====

# System: Hs-578T
# PROTOCOL_TEXT: NCI tumour cell line growth inhibition, 48 h
Active and inactive are the calls of the source. Rule as the data show it: active = GI50 up to about 1.1 µM and inactive = higher.
In this exercise, the only acceptable responses are yes (active), no (inactive)

Please review the entries below; each comes with its answer.
Cc1nc2c(C)c3c([nH]c4ccc(Cl)cc43)c(C)c2c(O)c1C    no
CC1=NN(c2ccc(S(=O)(=O)O)cc2)C(=O)/C1=C/c1ccc(Cl)cc1.c1ccncc1    no
COC1C(O)=C2C(=O)OC(C)(O)/C=C/C=C\C=C/C=C/C(c3ccccc3)NC(=O)/C=C/C=C/C=C/C=C/C2(C)C1O (stereo not given)    yes
OC(c1ccc(-c2ccccc2)cc1)C(F)(F)c1nc2ccccc2o1 (stereo not given)    no
Cc1cc2c3c(c1)CCCN3CCC2    no
COc1cc(C2CC(C)(O)Oc3cc4c(cc32)OCO4)cc(OC)c1OC (stereo not given)    yes
O=c1c2cc([N+](=O)[O-])ccc2[nH]n1Cc1ccccn1    no
COC(C)(C)OCCN1CCN(CCN2C3=C(C=C(C(C)=O)C3)Sc3ccccc32)CC1    no
Fc1ccc(OCc2nc3cc(C(F)(F)F)ccc3nc2-c2ccccc2)cc1    no

Now consider a different compound.
INPUT: Recorded test call requested for CC(C)C[C@H](NC(=O)[C@H](Cc1cccc2ccccc12)NS(=O)(=O)c1cccc2cccnc12)B(O)O
OUTPUT: yes
